Listing of recorded normalized growth by entry.
Assay: chemical genetic growth profiling, strain panel (AID 1159580);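 note: tested at 20 µM; growth read once vehicle control cultures reached saturation at 30 °C; 1 = growth at the plate median or of vehicle wells; lower values mean less growth of the strain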
Conditions: S. cerevisiae deletion strains, growth OD, locus YOR270C, strain vph1, stronger effect = lower value
Among all 5,500 compounds or so, about 2,000 (36%) were called active. Not shown: some 18% with an inconclusive outcome. The list shows a part of the results.
Lab note: jot down the number only; don't add units.

Example entries and their recorded answers appear below.
NC1C[C@H]1c1ccccc1 (some centres undefined) | 0.997
Cc1cc(C(C)(C)C)c(O)c(C)c1CC1=NCCN1 | 1.01
O=C1c2ccccc2C(=O)C1c1ccccc1 | 1.01

Moving on to another compound below.
Request: I have this compound here, Cc1cc(C(C)(C)C)cc(C)c1CC1=NCCN1 , and I need its recorded normalized growth.
Result: 1

###

Assay: chemical genetic growth profiling, strain panel (AID 1159580);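 note: tested at 20 µM; growth read once vehicle control cultures reached saturation at 30 °C; 1 = growth at the plate median or of vehicle wells; lower values mean less growth of the strain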
Conditions: S. cerevisiae deletion strains, growth OD, locus YKL190W, strain CNB1, stronger effect = lower value
Among all 5,500 compounds or so, about 2,000 (36%) were called active. Inconclusive results (about 18%) are left out. The list shows a part of the results.
Reported values of normalized growth for individual entries
Just the number, please.

Reference set (5 entries):
COc1cccc(NC(N)=S)c1 | 0.985
CN1CCN(CC(=O)N2c3ccccc3C(=O)Nc3cccnc32)CC1 | 1.01
COc1cc(NS(=O)(=O)c2ccc(N)cc2)ncn1 | 0.978
c1ccc([C@H]2CN3CCSC3=N2)cc1 | 0.998
CC(=O)Oc1cccc(C(=O)O)c1OC(C)=O | 1.01

Switching to the query record.
Request: What normalized growth value was documented for this compound, O=C1C=C(Cl)CC(c2ccc(C(F)(F)F)cc2)C1 (configuration not stated) ?
Result: 0.983

###

Test: chemical genetic growth profiling, strain panel (AID 1159580);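 note: tested at 20 µM; growth read once vehicle control cultures reached saturation at 30 °C; 1 = growth at the plate median or of vehicle wells; lower values mean less growth of the strain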
Conditions: S. cerevisiae deletion strains, growth OD, locus YLR330W, strain CHS5, stronger effect = lower value
Among all 5,500 compounds or so, about 2,000 (36%) were called active. Inconclusive results (about 18%) are left out. The list shows a part of the results.
The molecules listed here are annotated with their normalized growth.
Would you mind answering with just the numeric figure?

Here's what some known entries look like.
COc1cc2c(cc1O)CCNC2C (stereo not drawn) | 1
CC1(C)S[C@@H]2[C@H](NC(=O)Cc3ccccc3)C(=O)N2[C@H]1C(=O)O | 1
CC1=C(O)C(=O)C=C2C1=CC=C1[C@@]2(C)CC[C@@]2(C)[C@@H]3C[C@](C)(C(=O)O)CC[C@]3(C)CC[C@]12C | 0.253
O=C(CCBr)N1CCN(C(=O)CCBr)CC1 | 1.01
NC1C[C@H]1c1ccccc1 (stereo partly drawn) | 1.01

Request: Form field: reported normalized growth of Cc1ccc(N(CC2=NCCN2)c2cccc(O)c2)cc1
Result: 1.01

Request: May I ask what normalized growth has been recorded for CC(=O)[O][Hg][c]1ccccc1 ?
Result: 0.0544

Request: So what's the measured normalized growth for this one? O=C1c2ccccc2C(=O)C1c1ccccc1
Result: 0.999

Request: # normalized growth lookup, item O=c1c(O)c(-c2ccc(O)c(O)c2)oc2cc(O)ccc12
Result: 0.908

Request: normalized growth for COc1ccc2c(=O)ccoc2c1 ?
Result: 1.02

Request: Report normalized growth for Cc1onc(-c2c(Cl)cccc2Cl)c1C(=O)N[C@@H]1C(=O)N2[C@@H]1SC(C)(C)[C@@H]2C(=O)O please.
Result: 1.02

Request: Which normalized growth value is on record for CC1=CC(=O)C2=C(C)CC(O)C3C(C)C(=O)OC3C12 (stereo not drawn) ?
Result: 1.01

Request: Given the entry O=C(O)c1cc([N+](=O)[O-])ccc1NCCCc1ccccc1 , report its measured normalized growth.
Result: 0.927

Request: Would you kindly share the measured normalized growth for COc1cccc(OC)c1C(=O)N[C@@H]1C(=O)N2[C@@H]1SC(C)(C)[C@@H]2C(=O)O ?
Result: 0.993

Request: What value of measured normalized growth is listed for NC(=O)N1c2ccccc2C=Cc2ccccc21 ?
Result: 1

Request: Any idea what normalized growth was measured for CC1=NN(c2ccccc2)C(=O)C1 ?
Result: 0.988

Request: Report normalized growth for COc1cc(-c2coc3cc(O[C@@H]4O[C@H](CO)[C@@H](O)[C@H](O)[C@H]4O)c(OC)c(O)c3c2=O)cc(O)c1OC please.
Result: 1.01

Request: For CC(=O)OCC(=O)[C@@]12OC3(CCCC3)O[C@@H]1CC1C3CCC4=CC(=O)C=C[C@]4(C)[C@@]3(F)[C@@H](O)C[C@@]12C (stereo partly drawn) , what is its reported normalized growth?
Result: 1.01

Request: Can you look up the measured normalized growth of COc1cnc(NS(=O)(=O)c2ccc(N)cc2)nc1 for me?
Result: 0.994

Each recorded value in this set is attributed to PubChem BioAssay AID1159580.
